# run_description: In vivo topical administration pharmacokinetics of K173, rabbit (aqueous humor, cornea)
# condition_info: aqueous humor, topical or ocular, 5 mg/ml, Group 3 (8 BID doses), topical 5 mg/ml, 1 hr post-last dose, OS, individual animals, read-out: K173 Concentrations (ng/mL) in Rabbit Aqueous Humor OS Sample
Positions of bridges follow the written chain, without caps; N, C: chain ends. Non-standard residues stand in square brackets, D forms with d. Residues, ends and D or L forms follow the SMILES beside them. Triazole bridges read from a SMILES are 1,4-linked. *: point of attachment. Benzoyl(3,5-(OH)2) = O=C(c1cc(O)cc(O)c1)*; Lys(N3) = [N-]=[N+]=NCCCC[C@H](N)C(=O)O; dPhe(4-F) = N[C@H](Cc1ccc(F)cc1)C(=O)O; Nle = CCCC[C@H](N)C(=O)O; Pra = C#CC[C@H](N)C(=O)O
measured_attribute: level at 1 h (ng/mL)
Expressed in ng/mL, but write only the number.

Just so you know, measured level at 1 h for CCCC[C@H](NC(=O)c1cc(O)cc(O)c1)C(=O)N[C@H]1CCCCn2cc(nn2)C[C@@H](C(N)=O)NC(=O)[C@H](Cc2c[nH]c3ccccc23)NC(=O)[C@H](CCCNC(=N)N)NC(=O)[C@@H](Cc2ccc(F)cc2)NC(=O)[C@H](Cc2c[nH]cn2)NC1=O [KR-072] ({Benzoyl(3,5-(OH)2)}-[Nle][Lys(N3)]H[dPhe(4-F)]RW[Pra]-NH2; triazole 2-7) came out at 7.48
